Entries and their self-cleavage values follow.
B1: CPEB3 Ribozyme (parent)
chain: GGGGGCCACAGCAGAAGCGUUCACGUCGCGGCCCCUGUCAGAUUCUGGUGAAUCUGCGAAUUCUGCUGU

# Variants of: B1
# run.description: self-cleavage, relative activity (ratio to wild type); higher = more cleavage; co-transcriptional
Please give the numeric answer without any surrounding text.

Past entries and their recorded results:
mutations | self-cleavage
C27U C45U | 0.35
G5A C32U | 0.992

Exercise: Record request: self-cleavage value, item C12A C29A
Key: 0.121

Exercise: Record request: self-cleavage value, item C39U A42U
Key: 0.736

Exercise: Record request: self-cleavage value, item A10G C66A
Key: 0.385

Exercise: Record request: self-cleavage value, item G50C C54A
Key: 0.53

Exercise: Record request: self-cleavage value, item U36A U46C
Key: 0.186

All figures here come from the RNAGym collection of RNA variant scans (doi:10.7554/elife.80360).
